- Test system: OVCAR-8
- experiment: NCI tumour cell line growth inhibition, 48 h
Active and inactive are the calls of the source. Rule as the data show it: active = GI50 up to about 1.1 µM and inactive = higher.
Just give me one of these, please: class 1 (active), class 0 (inactive)

Take a look at these entries with their results.
Exam item: Hi, sorry to bother you, what did the test record for Oc1ccc(/C=C/c2cc(O)cc3c2C(c2cc(O)cc(O)c2)C(c2ccc(O)c(O)c2)O3)cc1 (centres undefined) ?
Marked response: class 0

Exam item: Another compound to check: CN(C)CCNC(=O)c1cccc2c(NC(CCC(N)=O)C(=O)O)c3ccccc3nc12 (centres undefined)
Marked response: class 0

Exam item: Another compound to check: `Cc1ccc(NC(=O)CSc2nnc(Cc3ccccc3)o2)c(C)c1`
Marked response: class 0

New cases:
Exam item: Hi, sorry to bother you, what did the test record for `N#Cc1[nH]c(=O)n(-c2ccccc2)c1N` ?
Marked response: class 0

Exam item: Another compound to check: CSc1nc(-c2ccc(Cl)cc2)c(C#N)c(=O)n1C1OC(COC(C)=O)C(OC(C)=O)C(OC(C)=O)C1OC(C)=O (centres undefined)
Marked response: class 0

Exam item: Another compound to check: Cc1ccc(OCC2OC(n3cnc4nc(Nc5ccc(Cl)c(Cl)c5)nc(Cl)c43)CC2Oc2ccc(C)cc2)cc1 (centres undefined)
Marked response: class 0

Exam item: Another compound to check: `O=C1Nc2ccccc2C1=Nc1ccc(S(=O)(=O)Nc2nccs2)cc1`
Marked response: class 0

Exam item: Another compound to check: `O=C1NC(Nc2ccccc2)=NC(C(F)(F)F)(C(F)(F)F)N1`
Marked response: class 0

Exam item: Another compound to check: `CC1=CC(=O)[C@@H](O)[C@]2(C)[C@H]3[C@@]4(O)OC[C@]35[C@H]([C@@H](C)[C@H]4O)[C@@H](O)C(=O)O[C@@H]5C[C@@H]12`
Marked response: class 1

Exam item: Another compound to check: `COc1cccc(-c2c(-c3ccccc3)[nH]c(C)c2C(=O)ONC(=O)c2ccccc2)c1`
Marked response: class 0

Exam item: Another compound to check: `CCOC(=O)NC(=O)c1cn(CCCOC(=O)CCCCCCCCC(=O)OCCCn2cc(C(=O)NC(=O)OCC)c(=O)n(C)c2=O)c(=O)n(C)c1=O`
Marked response: class 0

Exam item: Another compound to check: `COC(=O)/C=C/C(=O)Nc1cc(Cl)c(Cl)cc1CC(=O)N(C)[C@H]1CCCC[C@@H]1N1CCCC1`
Marked response: class 0

Exam item: Another compound to check: `COC(=O)CC[N+]1=CCC(c2ccccc2)(c2ccccc2)O1`
Marked response: class 0

Exam item: Another compound to check: `CN(C)c1ccc(/C=C2\C=Cc3ccccc32)cc1`
Marked response: class 0

Exam item: Another compound to check: CCOC(=O)C(Cc1ccc(OC(=O)c2ccc(OC)cc2)cc1)NC(=O)C(F)(F)F (centres undefined)
Marked response: class 0

Exam item: Another compound to check: `COC(=O)[C@@H]1Cc2ccc(OC)c(c2)OCCC(=O)N1`
Marked response: class 0

Exam item: Another compound to check: `NC1=Nc2ccccc2Sc2ccccc21`
Marked response: class 0

Exam item: Another compound to check: `COc1ccc(C[C@H]2COC(=O)[C@@H]2Cc2ccccc2)cc1OC`
Marked response: class 0

Exam item: Another compound to check: `CC(=O)N1C(=O)/C(=C\C(=O)c2ccc([N+](=O)[O-])cc2)c2ccccc21`
Marked response: class 0

----------
- System: NCI-H460
- experiment: NCI tumour cell line growth inhibition, 48 h
Calls of active or inactive are those of the source. Cut-off read from the data, not from the text of the source: active = GI50 up to about 1.1 µM and inactive = higher.
Just give me one of these, please: true (1) = active, false (0) = inactive

Exam item: Hi, sorry to bother you, what did the test record for CCN(/C=C1/C(=O)C(c2ccccc2)N(c2ccccc2)C1=O)CC (stereo not given) ?
Marked response: false (0)

Exam item: Another molecule to check: CC(=O)OC1CCC2(C)C(=CCC3C4CCC5(OC6CC(C)CN(C(C)=O)C6C5C)C(C)=C4C(=O)C32)C1 (stereo not given)
Marked response: false (0)

Exam item: Another molecule to check: `CCOc1cc2c(cc1O)/C(=N\OC)C[C@@H]1[C@@H]2CC[C@]2(C)[C@@H](O)CC[C@@H]12`
Marked response: true (1)

New cases:
Exam item: Hi, sorry to bother you, what did the test record for `N=C(NNS(=O)(=O)c1ccccc1)Oc1ccc(Br)cc1Br` ?
Marked response: false (0)

Exam item: Another molecule to check: `CCOC(=O)CC(=O)Nc1cccc2sc3ncccc3c(=O)c12`
Marked response: false (0)

Exam item: Another molecule to check: `CCOCN/C(N)=N\C#N`
Marked response: false (0)

----------
- Test system: MCF7
- experiment: NCI tumour cell line growth inhibition, 48 h
Active and inactive are the calls of the source. Cut-off read from the data, not from the text of the source: active = GI50 up to about 1.1 µM and inactive = higher.
Just give me one of these, please: class 1 = active, class 0 = inactive

Take a look at these entries with their results.
Exam item: Hi, sorry to bother you, what did the test record for `CN(C)c1n2c3cc([N+](=O)[O-])ccc3[n+]3c(N(C)C)n4ccccc4c3c2c2cccc[n+]12.[O-][Cl+3]([O-])([O-])[O-].[O-][Cl+3]([O-])([O-])[O-]` ?
Marked response: class 0

Exam item: Another compound to check: `CC(=O)Nc1oc(C)c(C)c1S(=O)(=O)c1ccc(Cl)cc1`
Marked response: class 0

Exam item: Another compound to check: COc1cc([C@@H]2c3[nH]c4ccccc4c3C(Nc3ccc([N+](=O)[O-])cc3)[C@H]3COC(=O)N23)cc(OC)c1O (some centres not stated)
Marked response: class 1

Now for a further compound.
Exam item: Hi, sorry to bother you, what did the test record for `COC(=O)CC[N+]1=CCC(c2ccccc2)(c2ccccc2)O1` ?
Marked response: class 0

----------
- System: SNB-75
- experiment: NCI tumour cell line growth inhibition, 48 h
Calls of active or inactive are those of the source. No stated cut-off is given here; in the data, active = GI50 up to about 1.1 µM and inactive = higher. Starred links: 1 amine or outer side, 2 acyl side, 3 side chain; linkers in the order of their positions; H or OH if unused. Residues, ends and D or L forms follow the SMILES beside them. *: point of attachment. γGlu = O=C(O)[CH](CCC(=O)[*:2])N[*:1]; NHOH = ON*
GI50 by entry:

Exam item: # query: GI50 | item `COCn1c(C)c(C)c2c(=O)oc(N(C)C)nc21` | system: SNB-75
Marked response: > 100 µM (inactive)

Exam item: Another molecule to check: CCOC(=O)CNC(=O)C(CCC(=O)NO)NC(=O)CCC(N)C(=O)O (stereo not given) (γGlu-Glu(NHOH)-Gly-OEt; configuration not given here)
Marked response: > 100 µM (inactive)

Exam item: Another molecule to check: `CC1=C/C(=N/N2C(=O)/C(=C/c3ccc(Cl)cc3)N=C2c2ccccc2)CC(C)(C)C1`
Marked response: 31.5 µM (inactive)

New cases:
Exam item: # query: GI50 | item CNC(=O)C(C)Oc1ccc(OCC2CCCCC2)cc1 (stereo not given) | system: SNB-75
Marked response: 96.2 µM (inactive)

Exam item: Another molecule to check: `COC(=O)c1ccc(C(=O)OC)c2nc3cc(Cl)ccc3nc12`
Marked response: > 100 µM (inactive)

----------
- System: HCT-116
- experiment: NCI tumour cell line growth inhibition, 48 h
Calls of active or inactive are those of the source. Cut-off read from the data, not from the text of the source: active = GI50 up to about 1.1 µM and inactive = higher.
GI50 by entry:

The cases that follow already have their GI50 on record.
Exam item: # query: GI50 | item `O=C1C=CC(=O)c2c(NCC3CC3)ccc(NCC3CC3)c21` | system: HCT-116
Marked response: 37.8 µM (inactive)

Exam item: Another compound to check: N/N=C(\C(=O)Nc1ccc(Cl)cc1Cl)C(c1cnc2ccccc2n1)[N+](=O)[O-] (stereo not given)
Marked response: 26.7 µM (inactive)

Exam item: Another compound to check: `CC1=C/C(=N/N2C(=O)/C(=C/c3ccc(Cl)cc3)N=C2c2ccccc2)CC(C)(C)C1`
Marked response: 91.8 µM (inactive)

Exam item: Another compound to check: `COC(=O)NC(Nc1ccccn1)(C(F)(F)F)C(F)(F)F`
Marked response: > 100 µM (inactive)

Attention now shifts to the item below.
Exam item: # query: GI50 | item `O=C1N(Cl)C(=O)C(c2ccc(Cl)cc2)(c2ccc(Cl)cc2)N1Cl` | system: HCT-116
Marked response: 72.6 µM (inactive)

----------
- Tested on: HOP-62
- experiment: NCI tumour cell line growth inhibition, 48 h
The source made the active and inactive calls. Rule as the data show it: active = GI50 up to about 1.1 µM and inactive = higher.
measured.attribute: GI50

The cases that follow already have their GI50 on record.
Exam item: Name the reported GI50 value associated with the compound CCC1(N=[N+]=[N-])C(=O)Nc2cc(C)ccc2C1=O (stereo unspecified)
Marked response: > 100 µM (inactive)

Exam item: Another compound to check: `C/C(=N\Oc1cc(Cl)ncn1)c1ccccn1`
Marked response: 38.1 µM (inactive)

Exam item: Another compound to check: Clc1ccc(C(c2ccccc2Cl)C(Cl)Cl)cc1 (stereo unspecified)
Marked response: 18.2 µM (inactive)

Exam item: Another compound to check: CC1Cc2c(cc(N)nc2Br)NC1=O (stereo unspecified)
Marked response: > 100 µM (inactive)

Exam item: Another compound to check: `Nc1nc(-c2cccnc2)cc(-c2cc(-c3cccnc3)nc(N)n2)n1`
Marked response: > 100 µM (inactive)

Attention now shifts to the item below.
Exam item: Name the reported GI50 value associated with the compound `CCOC(=O)c1cn(CC)c2ccc3ccsc3c2c1=O`
Marked response: > 100 µM (inactive)
